experimental_details: growth suppression of beta-catenin knockout HCT116, pilot screen, human colon tumor cells (AID 823);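 also: 0% = wells killed by 20 µM Hyamine and 100% = untreated DMSO cell wells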
conditions: CellTiter-Glo, 60 h, at 10 µM, stronger effect = lower value
Results filed as inconclusive are left out.
quantity_kind: viability (%)
Give the number; % is assumed, so skip it.

Record excerpt, results attached:
>>> measured_value("CCCn1c2ccccc2c2cc(C(=O)O)ccc21")
106
>>> measured_value("CC1(C)CC(NC(=O)C23CCC(C)(C(=O)C2)C3(C)C)CC(C)(C)N1 (stereo not drawn)")
96.2

Now for another entry.
viability reading for CCc1cc(Br)ccc1N1C(=O)C2CC=CCC2C1=O (stereo not drawn) : 86.5

----------
experimental_details: growth suppression of yeast trafficking mutant, preliminary HTS, modulators of trafficking downstream of Golgi apparatus project, 1536-format plate, OD 615 nm (AID 637)
conditions: yeast transport mutant growth, absorbance 615 nm, 18 h; stronger effect = higher value
quantity_kind: inhibition (%)
Give the number; % is assumed, so skip it.

Record excerpt, results attached:
>>> measured_value("CCn1c(SCC(=O)c2ccc(F)cc2)nnc1-c1ccoc1C")
-0.95
>>> measured_value("Nc1sccc1C(=O)c1ccccc1")
-0.16
>>> measured_value("COC(=O)c1sc(S(=O)(=O)NCc2cccs2)c(C(=O)OC)c1C")
4.26
>>> measured_value("O=C(NC1CCN(Cc2nnnn2CCc2ccccc2)CC1)c1ccccc1F")
-0.5
>>> measured_value("Cc1onc(-c2ccccc2Cl)c1C(=O)Nc1cccnc1")
-1.31

inhibition reading for "O=C1c2ccccc2C(=O)N1CNc1ccccc1" : -1.15

inhibition reading for "O=C(NCc1ccco1)C1(S(=O)(=O)c2ccc(Cl)cc2)CC1" : 24.1

inhibition reading for "O=C(COc1ccc(Cl)cc1)NCc1nnc(SCC(=O)Nc2ccc3c(c2)OCCO3)o1" : -11.7

inhibition reading for "COc1ccc(C2N(C(=O)c3ccccc3)CCN2C(=O)c2ccccc2)cc1" : 5.41

inhibition reading for "COC(=O)c1ccc(CSc2nc3c(cnn3-c3ccc(C)c(C)c3)c(=O)[nH]2)o1" : -1.64

inhibition reading for "Cc1cc(C)cc(OCCCC(=O)O)c1" : -0.16

inhibition reading for "Cc1ccc(Cl)cc1NC(=O)CSc1nnc(C)n1-c1ccccc1" : 0.65

----------
experimental_details: growth suppression of yeast trafficking mutant, preliminary HTS, modulators of trafficking downstream of Golgi apparatus project, 1536-format plate, OD 615 nm (AID 637)
conditions: yeast transport mutant growth, absorbance 615 nm, 18 h; stronger effect = higher value
The source made the active and inactive calls. Rule as the data show it: active = inhibition above about 30%; inactive = the rest.
Reported values of inhibition for individual entries

Record excerpt, results attached:
>>> measured_value("Nc1nnc(C(=O)c2ccccc2N)s1")
"3.93% (inactive)"
>>> measured_value("CCOCCn1cnc2sc(C(=O)Nc3nc(C)c(C(=O)OCC)s3)c(C)c2c1=O")
"-2.42% (inactive)"
>>> measured_value("CS(=O)(=O)C1=C(O)C(=O)N(c2ccccc2)C1c1ccccc1 (centres undefined)")
"0.33% (inactive)"
>>> measured_value("Cc1cc(Br)ccc1NC(=O)CNC(=O)CSc1n[nH]c(N)n1")
"8.41% (inactive)"
>>> measured_value("CC(C)CCNC(=O)NC(=O)CSc1nnc(COc2ccccc2Cl)o1")
"-5.87% (inactive)"
>>> measured_value("Cc1oc(-c2ccccc2F)nc1CS(=O)(=O)CC(=O)NCCCN1CCc2ccccc2C1")
"-1.97% (inactive)"
>>> measured_value("CC(NC(=O)C1CCCN(S(=O)(=O)c2cccs2)C1)c1ccccc1 (centres undefined)")
"1.17% (inactive)"
>>> measured_value("CCOC(=O)c1oc2ccccc2c1CSc1nnnn1-c1ccc(OC)cc1")
"0.16% (inactive)"
>>> measured_value("Cc1sc2c(c1C)CN(C1CC(C)(C)NC(C)(C)C1)CN2C(=O)c1ccco1")
"1.8% (inactive)"
>>> measured_value("COCCN(C(=O)c1csnn1)C(C(=O)NC(C)(C)C)c1cccc(OC)c1 (centres undefined)")
"0% (inactive)"

inhibition reading for Cc1ccc(O)c(C(CC(=O)N2CCCC2)c2ccccc2)c1 (centres undefined) : -6.83% (inactive)

inhibition reading for O=C(O)C1CCCN1C(=O)Nc1ccc(F)cc1 (centres undefined) : -8.5% (inactive)

inhibition reading for "Cc1ccc(-n2c(=O)c(C#N)cc3c(=O)n4ccccc4nc32)cc1" : 2.06% (inactive)

inhibition reading for "Cc1cc(C)n(-c2nc3ccccc3c(=O)n2OCCOc2ccccc2)n1" : -6.07% (inactive)

----------
experimental_details: reversal of MRP1-mediated doxorubicin resistance, pilot screen, H69AR cells, doxorubicin co-treatment (AID 601)
conditions: H69AR cells + 2 uM doxorubicin, CellTiter-Glo, 72 h; measured here: viability with 2 uM doxorubicin; at 10 µM; stronger effect = lower value
Reported values of viability for individual entries

>>> measured_value("Nc1nc(CSCc2ccccc2)nc(N2CCOCC2)n1")
"89.2%"
>>> measured_value("Cc1ccc(-n2c(=O)c(C#N)cc3c(=O)n4ccccc4nc32)cc1")
"89.6%"

Now for another entry.
viability reading for "Cc1cc(=O)n(C)c(=O)n1CCCNc1ccccc1" : 88.5%

----------
Reported values of inhibition for individual entries
experimental_details: inhibitors of the yeast RAM network, pilot screen, dse1pr::URA3 reporter, 5-FOA selection (AID 869);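 also: 0% = DMSO wells with no growth and 100% = 10 µM 1-NA-PP1 with full growth; RAM network block rescues cells from 5-FOA so hits raise OD615 growth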
conditions: S. cerevisiae dse1pr::URA3 5-FOA growth, OD615, 2 d; at 10 µM; stronger effect = higher value; strain carries analog-sensitive mutant Cbk1 kinase
Give the number; % is assumed, so skip it.

Record excerpt, results attached:
>>> measured_value("O=C(NCCC1=CCCCC1)NC1CCCCC1")
1.33
>>> measured_value("CCCCC(CC)CNC(=O)CCS(=O)(=O)c1cccc2nonc12 (stereo not given)")
2.17
>>> measured_value("CCOc1cc(CNC(=O)CN2C(=O)c3ccccc3S2(=O)=O)ccc1OC")
1.69
>>> measured_value("COc1ccc(OC(C)C(=O)Nc2cccc(OC)c2)cc1 (stereo not given)")
0.625
>>> measured_value("COc1ccc(NS(=O)(=O)c2cccc(-c3nnc4n3CCCCC4)c2)cc1")
1.11

inhibition reading for "N=c1n(CCOc2ccccc2)c2ccccc2n1CCN1CCOCC1" : 0.845

inhibition reading for CC1CC(C)CN(S(=O)(=O)c2cccc3cccnc23)C1 (stereo not given) : -0.45

inhibition reading for O=C1CC(c2ccc(S(=O)(=O)NCc3ccncc3)cc2)CN1 (stereo not given) : 1.73

inhibition reading for "Fc1ccc(Nc2nc(N3CCOCC3)c3ccccc3n2)cc1" : 0.45

inhibition reading for "COc1ccc(CN2CCN(c3ncccn3)CC2)c(OC)c1" : 1.24

inhibition reading for "CSC1=NCCN1C(=O)C(C)(C)Oc1ccc(Cl)cc1" : 0.3

inhibition reading for "Cc1ccc(C(=O)c2cn[nH]c2-c2cc(Cl)ccc2O)cc1" : 1.08

inhibition reading for "CCCc1nc(SCc2ccccn2)c2c(=O)n(C)c(=O)n(C)c2n1" : 1.61

inhibition reading for "COc1cc(C(=O)Nc2cccc(-c3nc4ccccc4o3)c2C)cc(OC)c1OC" : 2.46

inhibition reading for "CCSc1nc2ccccc2n1S(=O)(=O)c1ccccc1" : 0.395

inhibition reading for "COc1cccc(CNC(=O)C2CCN(S(=O)(=O)c3cccc4cccnc34)CC2)c1" : 2.88

inhibition reading for CC1CCC(NC(=O)Cn2c(=O)[nH]c3ccsc3c2=O)CC1 (stereo not given) : 2.09

----------
experimental_details: growth suppression of beta-catenin knockout HCT116, pilot screen, human colon tumor cells (AID 823);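 also: 0% = wells killed by 20 µM Hyamine and 100% = untreated DMSO cell wells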
conditions: CellTiter-Glo, 60 h, at 10 µM, stronger effect = lower value
Inconclusive results are not listed. The source made the active and inactive calls.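 Rule for the calls: active = cell viability at or below a set limit in both duplicate runs, the limit being the all-compound median minus 4 SD (cut at about 23% in these data, passing the limit was not always enough); inconclusive = no clear call, values can overlap the other calls; inactive = the rest.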
Reported values of viability for individual entries

viability reading for "CC(=O)c1ccc(NC(=O)CN2C(=O)COc3ccc(Cl)cc32)cc1" : 84% (inactive)

viability reading for CCC(C)C1C(C#N)=C(N)Oc2n[nH]c(-c3ccccc3)c21 (stereo not given) : 97.3% (inactive)

viability reading for "COC(=O)Cn1c(=NC(=O)CSC(C)=O)sc2ccccc21" : 98.5% (inactive)

viability reading for "N#C/C(=C(/O)CN1C(=O)c2ccccc2C1=O)c1nc2ccccc2[nH]1" : 100% (inactive)

viability reading for Cn1c(=O)oc2cc(S(=O)(=O)N3CCCC(C(=O)N4CC=C(c5ccccc5)CC4)C3)ccc21 (stereo not given) : 80.9% (inactive)

viability reading for CCC1CCCCN1C(=O)CSc1nc2c([nH]c3ccccc32)c(=O)n1C (stereo not given) : 55.7% (inactive)

----------
experimental_details: HUVEC growth inhibition – cell-based, human, primary screen (AID 575);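 also: 100% = median of untreated cell wells with 0.1% DMSO on each plate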
conditions: HUVEC proliferation, CellTiter-Glo luminescence, 72 h; at 10 µM; stronger effect = lower value
Reported values of viability for individual entries
Give the number; % is assumed, so skip it.

Record excerpt, results attached:
>>> measured_value("Nc1ccc(S(=O)(=O)NC(=O)c2ccccc2)cc1")
90
>>> measured_value("CCN(CCO)C1CC(=O)N(c2ccccc2C)C1=O (centres undefined)")
105
>>> measured_value("O=C(c1cn(-c2ccccc2)nc1-c1cccs1)N1CCN(c2ccccn2)CC1")
72.4

Now for another entry.
viability reading for "Fc1ccc(-n2c(Cc3ccccc3)nnc2SCc2nc(-c3cccs3)no2)cc1" : 73.1
